Just for reference, PubChem BioAssay (NCI) is where these values come from.

As shown below, each of these molecules has a reported TGI value.
Test system: DLD-1 colon
Assay: NCI tumour cell line growth inhibition, 48 h

Here are 5 molecules together with their reported answers.
CC(=O)O[C@H]1CC[C@@]2(C)C(CC[C@]3(C)C2CC[C@]2(C)Oc4c(C)cc(O)cc4C[C@@H]23)C1(C)C (stereo not given in full): 27.1 µM
Oc1ccc2occ3c2c1CCC3: > 100 µM
Cc1cc2c(cc1C)[n+](=O)c(C(=O)/C=C/c1ccc(Cl)cc1)c(C)n2[O-]: 70.9 µM
O=C(O)CNS(=O)(=O)c1ccc(NC(=O)c2ccc(F)cc2)cc1: > 100 µM
COc1ccc(C[C@H](N)C(=O)N2C[C@H](CO)C[C@H](n3cnc4c(N(C)C)ncnc43)C2)cc1: > 100 µM

Answer briefly: TGI recorded on DLD-1 colon for CCN(CC)CC(=O)/C=C/c1ccc(C)cc1 59.6 µM

Answer briefly: TGI recorded on DLD-1 colon for CCNC(=O)/C=C/CCC#Cc1ccc(-c2ccc(-c3cccs3)s2)s1 > 100 µM

Answer briefly: TGI recorded on DLD-1 colon for CCNc1c(C(=O)N(CC)CC)c(=O)[nH]c2ncccc12 > 100 µM

Answer briefly: TGI recorded on DLD-1 colon for CC1CCc2c(sc3ncnc(N/N=C/c4ccc(Cl)c(Cl)c4)c23)C1 (stereo not given) > 100 µM

Answer briefly: TGI recorded on DLD-1 colon for CC(C)COC(=O)N1N=NC2C3OC(CC3=O)C21 (stereo not given) > 100 µM

====

Test system: 786-0 renal
Assay: NCI tumour cell line growth inhibition, 48 h; in the data active = GI50 below about 0.43 µM; inactive = the rest
Answer with one of the outcomes active, inactive

Use these answered entries as a reference point.
CC1=C(C(=O)Nc2ccc3[nH]ncc3c2)C(c2ccc(F)cc2)NC(=O)N1 (centres undefined): inactive
COc1cc(N=Nc2ccccc2)cc(/C=N\[N-]C(N)=S)c1[O-].COc1cc(N=Nc2ccccc2)cc(/C=N\[N-]C(N)=S)c1[O-].[Fe+4]: inactive
COc1cc([C@@H]2c3cc4c(cc3C(Br)[C@H]3COC(=O)[C@H]23)OCO4)cc(OC)c1OC (some centres undefined): active

Now consider a different molecule.
Outcome? Nc1nc2c(c3ncccc13)C(c1ccc(Cl)c(Cl)c1)Cc1ncccc1-2 (centres undefined) inactive

====

System: IGROV1 ovarian
Assay: NCI tumour cell line growth inhibition, 48 h
readoutType: TGI

Here are 3 molecules together with their reported answers.
Oc1ccc2c(c1)CC[N+]1=C2CCC2CCCC21 (stereo not given): > 100 µM
CC(=Nc1c2ccccc2nc2ccccc12)N(C)C: > 100 µM
c1cc(C2CCCCC2)ccc1OCCCCCCN1CCNCC1: 3.89 µM

Answer with the recorded TGI for the molecule listed here: C=C1C(=O)O[C@H]2[C@H]1CC/C(CNS(=O)(=O)c1ccc3ccccc3c1)=C\CC[C@@]1(C)O[C@@H]21 8.2 µM

Answer with the recorded TGI for the molecule listed here: O=C1c2ccccc2-c2nccc3cc(Cl)nc1c23 1.91 µM

Answer with the recorded TGI for the molecule listed here: Cc1cc(=O)c2cc(N=Cc3ccc([N+](=O)[O-])o3)ccc2o1 > 100 µM

Answer with the recorded TGI for the molecule listed here: O=c1[nH]c(=O)n(COCc2ccccc2)c2ccc(Br)cc12 > 100 µM

====

Tested on: SF-539 CNS
Experiment: NCI tumour cell line growth inhibition, 48 h
readoutType: TGI (µM)
Return type: number; implicit unit µM.

Here are 5 molecules together with their reported answers.
COC(=O)/C=C\C(C#N)(C#N)N=Cc1ccc(C)s1: 10.1
CCN(CC)C(=S)N/N=C/c1ccccn1: 0.377
CC(=O)NC1C(OCc2ccccc2)OC(CO)C(O)C1OCC(=O)NC(C)C(=O)NC(CCC(=O)NCCCCCNc1c2ccccc2nc2cccc([N+](=O)[O-])c12)C(N)=O (stereo not given): 0.00116
O=C1c2ccccc2-c2nccc3cc(Cl)nc1c23: 24.7
C=C1C(=O)O[C@H]2[C@H]1CC/C(CNC(=O)/C=C/c1cccc(OC)c1)=C\CC[C@@]1(C)O[C@@H]21: 2.98

Answer with the recorded TGI for the molecule listed here: CCc1ccc(-c2ccc(=O)n(-c3ccc(S(N)(=O)=O)cc3)n2)cc1 32.1

Answer with the recorded TGI for the molecule listed here: C[N+](C)([O-])CCCNc1c2ccccc2nc2cccc([N+](=O)[O-])c12 3.88

Answer with the recorded TGI for the molecule listed here: O=C(Nc1ncc(Cc2ccccc2)s1)c1ccc2c(c1)OCCCO2 4.27

Answer with the recorded TGI for the molecule listed here: CCOC(=O)CCc1c(C(=O)OCC)[nH]c(/C=C2\NC(=O)C(C)=C2CC)c1C 69.6

Answer with the recorded TGI for the molecule listed here: c1cc(C2CCCCC2)ccc1OCCCCCCN1CCNCC1 3.25

====

Tested on: OVCAR-5 ovarian
Assay: NCI tumour cell line growth inhibition, 48 h
Outcome label depends on TGI relative to 30 µM: at/above gives yes, below gives no.

Cc1ccc2c[c]1[Hg][CH2]COS2(=O)=O: yes
N#Cc1c2ccccc2c2n1-c1ccccc1OC(c1ccccc1)C2=O (stereo unspecified): yes
O=C1CCCC2=C1C(c1ccc3c(c1)OCO3)Nc1ccc3ccccc3c12 (stereo unspecified): yes
Cc1nc2cncc(C#Cc3cncc(C(=O)Nc4ccc(CN5CCN(C)CC5)c(C(F)(F)F)c4)c3)c2nc1C: no
CN(C)c1ccc(C(=O)c2ccc(N(C)C)c(N)c2)cc1N: yes
CC1=C(SCc2ccccc2)C(=O)c2ccccc2C1=O: yes

Reported TGI reaches at least 30 µM for [N-]=[N+]=NC1CC(n2cc(COCC(F)(F)F)c(=O)[nH]c2=O)OC1CO (stereo unspecified) ? yes

Reported TGI reaches at least 30 µM for Fc1ccc(C2CC(c3cccc(Nc4ccncc4)c3)=NN2c2cc(Cl)cc(Cl)c2)cc1 (stereo unspecified) ? no

Reported TGI reaches at least 30 µM for Cc1cc(=O)n2nc(CSc3nnc(N)s3)sc2n1 ? yes

Reported TGI reaches at least 30 µM for O=c1[nH]c2ccccc2nc1/C=C(\O)C(F)F ? yes

====

Test system: A498 renal
Test: NCI tumour cell line growth inhibition, 48 h
As shown below, each of these compounds has a reported TGI value.
Return type: number; implicit unit µM.

Cc1[nH]c(C(=O)Nc2ccc(C(=O)N3CCNCC3)cc2OC(C)C)c(Cl)c1Cl: 24.7
COC(=O)/C=C\C(C#N)(C#N)N=Cc1ccc(C)s1: 34.7

Answer with the recorded TGI for the compound listed here: Cc1ccccc1S(=O)(=O)N1[C@H](c2ccc(Cl)cc2)C(C(=O)N[C@@H](Cc2ccccc2)C(N)=O)=C[C@@H]1C(C)(C)C 14.4

Answer with the recorded TGI for the compound listed here: Nc1nc2c(c3ncccc13)C(c1ccc(Cl)c(Cl)c1)Cc1ncccc1-2 (configuration not stated) 5.85

Answer with the recorded TGI for the compound listed here: CC1CC[C@@]2(OC1)O[C@H]1C[C@H]3[C@@H]4CC[C@H]5C[C@@H](OC6OC(CO)C(OC7OC(CO)C(OC8OC(CO)C(O)C(OC9OC(C)C(OC%10OC(C)C(O)C(O)C%10O)C(O)C9O)C8OC8OCC(O)C(O)C8O)C(O)C7O)C(O)C6O)CC[C@]5(C)[C@H]4CC(=O)[C@]3(C)[C@H]1[C@@H]2C (some centres not stated) 32.1

Answer with the recorded TGI for the compound listed here: CCN(CC)CCOc1ccc(Nc2ncc3cc(-c4c(Cl)cccc4Cl)c(=O)n(CCOC)c3n2)cc1 0.16

Answer with the recorded TGI for the compound listed here: COc1cc([C@@H]2c3cc4c(cc3C(Br)[C@H]3COC(=O)[C@H]23)OCO4)cc(OC)c1OC (some centres not stated) 0.177

Answer with the recorded TGI for the compound listed here: OCc1cccc(-c2ccc3ncc(-c4nc(NC5CC5)ncc4F)n3c2)c1 0.367

Answer with the recorded TGI for the compound listed here: C=CCN(c1cc(OCc2ccccc2)c(NC(C)=O)cc1[N+](=O)[O-])S(C)(=O)=O 41.6

Answer with the recorded TGI for the compound listed here: COc1ccc(/C=C(\C(=C/c2ccc(OC)cc2)[N+](=O)[O-])[N+](=O)[O-])cc1 79

====

Tested on: NCI-H460 lung
Experiment: NCI tumour cell line growth inhibition, 48 h
readoutType: TGI (µM)
Return type: number; implicit unit µM.

OCc1cccc(-c2ccc3ncc(-c4nc(NC5CC5)ncc4F)n3c2)c1: 0.825
NC(=O)C(Br)CBr (centres undefined): 13.5

Answer with the recorded TGI for the molecule listed here: Cn1c(-c2ccc[se]2)ccc1-c1ccc(CO)[se]1 18.8

Answer with the recorded TGI for the molecule listed here: O=C1c2ccccc2-c2nccc3cc(Cl)nc1c23 12.2

Answer with the recorded TGI for the molecule listed here: C[N+](C)([O-])CCCNc1c2ccccc2nc2cccc([N+](=O)[O-])c12 0.707

Answer with the recorded TGI for the molecule listed here: COc1cc2c(cc1OCCCOC1=C=C=C(c3ccc4c(c3)c3cc(-c5ccc(OCCCOc6cc7c(cc6OC)C(=O)N6CCC[C@H]6C=N7)cc5)ccc3n4S(=O)(=O)c3ccc(C)cc3)C=C1)N=C[C@@H]1CCCN1C2=O 7.99

Answer with the recorded TGI for the molecule listed here: O=C1c2ccccc2-c2c1c1ccc([N+](=O)[O-])cc1c(=O)n2CCNCCCNCCn1c2c(c3ccc([N+](=O)[O-])cc3c1=O)C(=O)c1ccccc1-2 18.7
